# assayed_system: T1, human EphB6 (Homo sapiens, UniProt O15197)
# T1 construct: a protein of the extracellular region of each human Eph receptor fused with the SEAP protein and the His tag; made in house; host or cells: Expi293F cells
# T1 sequence (O15197 32-594 limits assumed): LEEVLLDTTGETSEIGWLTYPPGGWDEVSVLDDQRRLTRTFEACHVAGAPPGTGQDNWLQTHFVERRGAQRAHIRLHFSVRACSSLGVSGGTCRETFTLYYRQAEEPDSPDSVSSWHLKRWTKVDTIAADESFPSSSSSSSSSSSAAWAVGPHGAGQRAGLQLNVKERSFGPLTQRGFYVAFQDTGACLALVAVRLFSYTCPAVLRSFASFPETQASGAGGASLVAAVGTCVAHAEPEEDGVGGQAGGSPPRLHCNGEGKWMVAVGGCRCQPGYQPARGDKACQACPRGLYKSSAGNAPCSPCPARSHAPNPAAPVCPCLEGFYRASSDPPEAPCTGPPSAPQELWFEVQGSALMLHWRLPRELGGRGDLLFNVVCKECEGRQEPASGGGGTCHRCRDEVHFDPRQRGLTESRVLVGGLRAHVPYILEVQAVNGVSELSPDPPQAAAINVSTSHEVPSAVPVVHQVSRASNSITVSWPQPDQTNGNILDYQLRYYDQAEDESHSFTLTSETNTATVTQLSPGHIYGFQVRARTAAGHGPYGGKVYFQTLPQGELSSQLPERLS
# method_description: Selectivity ELISA of humanized antibodies for human Eph receptor
# Type: binding
# settings: coated protein 1 nM
readout: hEphB6-SEAP-: absorbance at 450 nm, percentage with respect to hEphA4-SEAP-His as 100% (%)

{"molecule": "88 (antibody, V domains shown, constant regions without entry; synthetic humanized antibody light chain variable region sequence; synthetic humanized antibody heavy chain variable region sequence) VL: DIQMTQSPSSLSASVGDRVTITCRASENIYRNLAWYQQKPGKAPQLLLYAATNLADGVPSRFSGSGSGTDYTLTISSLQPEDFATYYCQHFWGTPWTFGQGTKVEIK VH: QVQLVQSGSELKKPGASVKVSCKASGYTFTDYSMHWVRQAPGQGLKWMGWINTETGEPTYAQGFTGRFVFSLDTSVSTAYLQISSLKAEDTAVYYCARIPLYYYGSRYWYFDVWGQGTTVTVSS", "reported": 6.1}
{"molecule": "83 (antibody, V domains shown, constant regions without entry; synthetic humanized antibody light chain variable region sequence; synthetic humanized antibody heavy chain variable region sequence) VL: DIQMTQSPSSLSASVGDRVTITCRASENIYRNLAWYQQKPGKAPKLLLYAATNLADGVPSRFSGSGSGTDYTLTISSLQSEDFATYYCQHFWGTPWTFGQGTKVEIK VH: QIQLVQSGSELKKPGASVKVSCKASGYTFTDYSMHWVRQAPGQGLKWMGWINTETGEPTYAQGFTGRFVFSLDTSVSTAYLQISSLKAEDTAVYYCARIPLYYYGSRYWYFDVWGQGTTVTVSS", "reported": 5.8}
